Where do these numbers come from? They come from patent US12281114B2.

molecular target: human NK3 (Homo sapiens, UniProt P29371); experiment: FLIPR calcium assay in antagonist mode (NKB EC70 challenge); format: cell-based; conditions: stable cell line expressing human recombinant NK3; antagonist mode vs EC70 of NKB agonist
Sequence (P29371 whole entry): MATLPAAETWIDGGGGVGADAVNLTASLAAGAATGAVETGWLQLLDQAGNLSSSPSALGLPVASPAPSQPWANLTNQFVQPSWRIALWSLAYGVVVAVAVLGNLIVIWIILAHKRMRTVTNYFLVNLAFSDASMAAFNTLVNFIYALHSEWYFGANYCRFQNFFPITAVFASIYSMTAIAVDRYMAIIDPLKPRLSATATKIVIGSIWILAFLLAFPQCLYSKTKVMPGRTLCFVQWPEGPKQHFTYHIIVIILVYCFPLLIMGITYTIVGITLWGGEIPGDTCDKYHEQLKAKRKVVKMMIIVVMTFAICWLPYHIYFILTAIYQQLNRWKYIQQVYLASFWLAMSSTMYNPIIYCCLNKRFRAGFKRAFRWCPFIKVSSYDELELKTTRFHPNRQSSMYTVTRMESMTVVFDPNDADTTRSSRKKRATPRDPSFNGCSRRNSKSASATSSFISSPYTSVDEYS
For each record, write down the corresponding pIC50.
One number for each entry, as −log10 of the molar value.

Some entries whose results are on file:
Ask: Which pIC50 value belongs to Cc1nn(C)cc1-c1cccc(F)c1-c1nc2cc(C(=O)N[C@H]3CO[C@H]4[C@@H]3OC[C@H]4O)ccn2c1Cl [Compound 780] ?
Reply: 8.48

Ask: Which pIC50 is listed for Cc1nn(C)cc1-c1ccccc1-c1nc2cc(C(=O)N[C@H]3C[C@@](C)(C(=O)O)C3)ccn2c1C [Compound 298] ?
Reply: 7.57

Ask: Bench note: what pIC50 did Cc1nn(C)cc1-c1ccccc1-c1nc2cc(C(=O)NC3CCNCC3)ccn2c1C [Compound 264] show?
Reply: 7.97

Ask: // query pIC50 value for entry Cc1nn(C)cc1-c1ccccc1-c1nc2cc(C(=O)NCCc3n[nH]c(=O)[nH]3)ccn2c1Cl [Compound 748]
Reply: 8.25

Ask: If you can, please state the reported pIC50 value of Cc1nn(C)cc1-c1ccccc1-c1nc2cc(C(=O)N[C@H]3CO[C@H]4[C@@H]3OC[C@@H]4N)ccn2c1Cl [Compound 617] .
Reply: 8.50

Ask: Consider the molecule shown here: Cc1nn(C)cc1-c1ccccc1-c1nc2cc(C(=O)NC[C@]34C[C@](CO)(C3)C4)ccn2c1Cl [Compound 635] What is its recorded pIC50?
Reply: 8.78

More entries:
Ask: Which pIC50 is listed for O=C(NCC1(O)COC1)c1ccn2c(F)c(-c3c(F)cc(F)cc3-c3c[nH]nc3Cl)nc2c1 [Compound 834] ?
Reply: 8.22
